IC50 for assorted compounds
Assay Method Text: Inhibition of NF-kappaB activation
Property: IC50 (nM)

[[record]]
compound_structure = "CC(=O)Nc1ccc(CCNc2ncnc3ccc(N)cc23)cc1"
readout_value = 5980

[[record]]
compound_structure = "Cc1ccc(CCNc2ncnc3ccc(N)cc23)cc1"
readout_value = 210

[[record]]
compound_structure = "O=S1(=O)Nc2c(ccc3cccnc23)-c2cc(Cl)ccc21"
readout_value = 1100

